# collection of pIC50 values tested on AXL (Homo sapiens)
# Sequence (P30530 26-894): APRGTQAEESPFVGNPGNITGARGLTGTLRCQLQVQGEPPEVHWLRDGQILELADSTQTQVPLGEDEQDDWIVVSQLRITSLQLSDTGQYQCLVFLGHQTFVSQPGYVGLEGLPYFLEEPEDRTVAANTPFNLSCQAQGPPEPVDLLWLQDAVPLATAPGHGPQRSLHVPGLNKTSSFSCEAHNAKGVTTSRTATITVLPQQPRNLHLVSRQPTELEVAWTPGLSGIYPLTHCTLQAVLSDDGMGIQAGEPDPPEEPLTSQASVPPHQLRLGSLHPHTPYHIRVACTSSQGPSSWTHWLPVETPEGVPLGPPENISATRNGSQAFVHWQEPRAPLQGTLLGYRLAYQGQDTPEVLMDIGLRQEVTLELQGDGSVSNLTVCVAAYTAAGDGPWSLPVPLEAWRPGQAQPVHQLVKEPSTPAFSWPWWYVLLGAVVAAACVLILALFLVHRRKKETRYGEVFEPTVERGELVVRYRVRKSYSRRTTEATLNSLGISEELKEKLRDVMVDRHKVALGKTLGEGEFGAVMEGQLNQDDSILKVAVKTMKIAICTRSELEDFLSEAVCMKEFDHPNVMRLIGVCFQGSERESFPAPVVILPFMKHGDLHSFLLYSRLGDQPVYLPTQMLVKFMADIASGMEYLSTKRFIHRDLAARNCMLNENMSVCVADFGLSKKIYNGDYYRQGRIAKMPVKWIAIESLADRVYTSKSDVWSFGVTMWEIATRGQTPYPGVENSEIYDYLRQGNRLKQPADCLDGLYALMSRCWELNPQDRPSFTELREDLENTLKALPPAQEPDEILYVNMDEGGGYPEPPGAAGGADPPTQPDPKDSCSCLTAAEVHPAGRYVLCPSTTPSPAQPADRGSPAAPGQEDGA
pIC50: −log10 of the molar value.

Check out these entries, answers already filled in.
>>> result("COC[C@H](C)Nc1ncc2c(-c3ccnc(O[C@H]4CCNC4)c3)cc([C@H]3CC[C@H](O)CC3)n2n1")
"≥ 7.00"
>>> result("COCCOc1cc(-c2cc([C@H]3CC[C@H](O)CC3)n3nc(N[C@@H](C)COC)ncc23)ccn1")
"≥ 7.00"
>>> result("CNc1cc(-c2cc([C@H]3CC[C@H](O)CC3)n3nc(N[C@@H](C)COC)ncc23)ccn1")
"≥ 7.00"
>>> result("CN1CCN(Cc2ccc(-c3cc(C4CCC(O)CC4)n4nc(NC5CCC5(C)C)ncc34)cc2)CC1 (mixture of isomers)")
"6.00 to 7.00"
>>> result("Cc1nnc(C(C)(C)n2cc(-c3cc([C@H]4CC[C@H](O)CC4)n4nc(N[C@@H](C)COC(F)F)ncc34)cn2)o1")
"≥ 7.00"
>>> result("COC[C@H](C)Nc1ncc2c(-c3cnn(C(C)(C)c4nnc(C(F)F)o4)c3)cc([C@H]3CC[C@H](O)CC3)n2n1")
"≥ 7.00"
>>> result("COC[C@H](C)Nc1ncc2c(-c3ccc(CN4CCOCC4)cc3)cc([C@H]3CC[C@@H](O)CC3)n2n1")
"≥ 7.00"
>>> result("CC[C@H](C)Nc1ncc2c(C3CCN(c4nccc(C)n4)CC3)cc([C@H]3CC[C@H](O)CC3)n2n1")
"6.00 to 7.00"
>>> result("COC[C@H](C)Nc1ncc2c(-c3ccnc(O[C@@H]4CCNC4)c3)cc([C@H]3CC[C@H](O)CC3)n2n1")
"≥ 7.00"
>>> result("COC[C@H](C)Nc1ncc2c(-c3cnn(C4COC4)c3)cc([C@@H]3CC[C@@H](O)[C@H](C)C3)n2n1")
"≥ 7.00"

Exam item: State pIC50 on AXL (Homo sapiens). Entry: COCC(C)Nc1ncc2c(C3CC4CCC(C3)N4C)cc(C3CCC(O)CC3)n2n1 (centres unmarked)
Marked response: 6.00 to 7.00

Exam item: Print AXL (Homo sapiens) pIC50 for COC[C@H](C)Nc1ncc2c(-c3cnn(C4CC(S(C)(=O)=O)C4)c3)cc([C@H]3CC[C@H](O)CC3)n2n1 (some centres unmarked) .
Marked response: ≥ 7.00

Exam item: Give pIC50; test system AXL (Homo sapiens); molecule "COC[C@H](C)Nc1ncc2c(-c3cncc(S(C)(=O)=O)c3)cc([C@H]3CC[C@H](O)CC3)n2n1"
Marked response: 6.00 to 7.00

Exam item: GET pIC50 where system = AXL (Homo sapiens) and item = COCC(C)Nc1ncc2c(-c3ccc4nccn4c3)cc(C3CCC(O)CC3)n2n1 (centres unmarked)
Marked response: ≥ 7.00

These data points were gathered from patent US11040981B2.
